- MEASUREMENT TARGET: Brugia Hsp90 (Brugia pahangi)
- Construct: from tissue; host or cells: whole adult B. pahangi worms from infected gerbils, ground and re-suspended in HFB assay buffer
- EXPERIMENT NOTES: biochemical
- Type: binding
- SETUP CONDITIONS: Brugia IC50, Figure 4C; 6 nM cy3B-GA, 2 µg/well Brugia extract, 4°C, 24 h
pIC50: −log10 of the molar value.
Reported pIC50 is given for each of the following compounds.

| CHEM SMILES | pIC50 |
| --- | --- |
| C#CCCCn1c(Cc2cc(OC)c(OC)c(OC)c2Cl)nc2c(N)nc(F)nc21 | 5.85 |
| CC(C)NCCCn1c(Sc2cc3c(cc2I)OCO3)nc2c(N)ncnc21 | 7.09 |

Cited source: paper PMC2886105
